EXPERIMENT_NOTES: NCI Yeast Anticancer Drug Screen. Data for the rad50 strain (AID 155);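 further: 0% = growth of vehicle-only cultures of the same strain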
CONDITIONS: S. cerevisiae rad50 strain growth inhibition; at 50.0 µM; hits give high values
About 79,000 compounds went through this panel and 15% of them were active in at least one assay; those are over-represented in the sample as a whole.
Collected growth inhibition values appear next to each entry.
Give the value in % but do not write % after it.

Worked cases, growth inhibition given:
{"MOLECULE": "CCOC(=O)c1nc2ccc(OC)cc2c2c1Cc1ccccc1-2", "TEST_RESULT": -8.55}
{"MOLECULE": "CC1(C)C(=O)NC(=O)N1CO", "TEST_RESULT": 27.1}
{"MOLECULE": "Cc1[nH]nc(C(=O)O)c1N", "TEST_RESULT": -18.2}

Provide only the value of recorded growth inhibition for CCC[N+]1=C/c2ccccc2OC(=O)/C=C\1[O-]
-36.9

Provide only the value of recorded growth inhibition for O=C(Nc1ccccc1[N+](=O)[O-])Oc1ccc(-c2ccccc2)cc1
9.05

Provide only the value of recorded growth inhibition for O/N=C1/CC2CCCCC2CC1(O)c1ccccc1 (centres undefined)
17.3

Provide only the value of recorded growth inhibition for Cc1ccc(S(=O)(=O)OCC2(COS(=O)(=O)c3ccc(C)cc3)CCC2)cc1
-7.8

Provide only the value of recorded growth inhibition for CC1=C(/C=C/Cl)CC(Cl)C(C)(Cl)C1 (centres undefined)
-2.25

Provide only the value of recorded growth inhibition for CN1CCn2c(Br)ccc2C1=O
13.6

Provide only the value of recorded growth inhibition for CCCCC(=O)OCC(=O)[C@]1(O)Cc2c(O)c3c(c(O)c2[C@@H](OC2CC(NC(=O)C(F)(F)F)C(O)C(C)O2)C1)C(=O)c1c(OC)cccc1C3=O (some centres undefined)
19.5

###

EXPERIMENT_NOTES: NCI Yeast Anticancer Drug Screen. Data for the sgs1 mgt1 strain (AID 161);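 further: 0% = growth of cultures given vehicle only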
CONDITIONS: S. cerevisiae sgs1 mgt1 strain, at 50.0 µM, hits give high values
Experimental: Growth inhibition of yeast strains with defined genetic alterations is measured as a screen for potential anti-cancer activity. Selected strains with alterations in DNA damage repair or cell cycle control were exposed to compounds and growth inhibition was measured relative to vehicle treated controls. The strain used in this assay is sgs1 mgt1
About 79,000 compounds went through this panel and 15% of them were active in at least one assay; those are over-represented in the sample as a whole.
VALUE_TYPE: growth inhibition (%)
Give the value in % but do not write % after it.

{"MOLECULE": "CC1(C(=O)O)CCCC1C(=O)O (configuration not stated)", "growth inhibition (%)": 1.75}
{"MOLECULE": "CC(=O)Oc1ccc2c(OC(C)=O)c(C)cc(OC(C)=O)c2c1", "growth inhibition (%)": 20.9}
{"MOLECULE": "FC(F)(F)c1cc(Br)c2ccc3ncccc3c2n1", "growth inhibition (%)": -1.05}

Provide only the value of recorded growth inhibition for CCOC(=O)c1cc2nc(NC(=O)c3ccccc3)sc2n1C
7.3

Provide only the value of recorded growth inhibition for O=C(C[n+]1cccc(C(=O)Nc2ccccc2)c1)Nc1ccc(Cl)cc1
-2.35

Provide only the value of recorded growth inhibition for CCNc1ncnc2c1cnn2C1CCCCC1
-5.85

Provide only the value of recorded growth inhibition for CCCCCCCNc1ccc(C(=O)OCC)cc1
-1.95

Provide only the value of recorded growth inhibition for Cn1ccnc1CC(C)(O)c1ccccc1 (configuration not stated)
-44.9

Provide only the value of recorded growth inhibition for C=Cc1c(C)c(OC)cc2c1Oc1ccc(OC)c(C)c1CC2
19.5

Provide only the value of recorded growth inhibition for O=C(/C=C/c1ccc(OCCSCCCCCCCCCCSCCOc2ccc(/C=C/C(=O)c3ccc(Cl)cc3)cc2)cc1)c1ccc(Cl)cc1
-21.9

Provide only the value of recorded growth inhibition for O=S(=O)(Cc1ccccc1)/C(=C\c1ccccc1)c1ccccc1
2.4

Provide only the value of recorded growth inhibition for O=[N+]([O-])c1nccn1CCC[n+]1ccc2ccccc2c1
-8.6
